Values were extracted from patent US6943924B2.

Test system: cultured mouse cortical neurons
protocol.text: Digital holographic imaging (DHI) of glutamate-mediated morphological changes (phase/OPL signal) in neurons
Type: cell-based
assay.context: 20 seconds pulses; glycine (3 μM) in perfusion solutions; 5 different experiments; normalized to maximal response; read-out: EC50 of glutamate-evoked phase response (Hill equation fit of concentration-response curve)
readout.name: EC50

The value of EC50 measured for the compound N[C@@H](CCC(=O)O)C(=O)O [glutamate] turned out to be ~7.5 µM
